Taken from ChEMBL document CHEMBL1201862.

Reported GI50 values for the following compounds.
system: SNB-75; assay: NCI tumour cell line growth inhibition, 48 h
Activity calls are given as the source filed them. Rule as the data show it: active = GI50 up to about 1.1 µM and inactive = higher.

Field: example entries. Status: answers known.
C=CCN(CCN(CC=C)S(=O)(=O)c1ccc(C)cc1)S(=O)(=O)c1ccc(C)cc1    > 100 µM (inactive)
CC1C2(C)OC(=N)C(C#N)(C(c3ccccc3)O2)C1(C#N)C#N (stereo not drawn)    > 100 µM (inactive)
CN(C)CCCSc1nc2c(c(=N)n1-c1ccccc1)c(=S)n(-c1ccccc1)c(=S)n2-c1ccccc1    1.63 µM (inactive)
CN1CCN(CCCCN2c3ccccc3Sc3ccc(N=[N+]=[N-])cc32)CC1    4.55 µM (inactive)
CCC(=O)Nc1ccc(NC(C#N)c2cccc(Oc3ccccc3)c2)cc1 (stereo not drawn)    42 µM (inactive)

Please fill in: GI50 reported for Cc1oc(N)c(S(=O)(=O)c2ccc(Cl)cc2)c1C = 29.9 µM (inactive)

The compound identified as CN(C)C[C@H]1CC[C@@H](CN(C)C)C1=O registered its GI50 at 14.5 µM (inactive)

* * *

Documented GI50 across a set of compounds
test system: OVCAR-8; test: NCI tumour cell line growth inhibition, 48 h
Calls of active or inactive are those of the source. Cut-off read from the data, not from the text of the source: active = GI50 up to about 1.1 µM and inactive = higher.

O=S(=O)(O)SC/C=C\CSS(=O)(=O)O    > 100 µM (inactive)
CC/C(=N/O)c1ccc(Br)s1    > 100 µM (inactive)
COc1ccc(-c2nc3ccc(C)cc3o2)c(OC)c1    26.4 µM (inactive)

Measured GI50 of O=C(NC1CCN(Cc2ccccc2)CC1)c1ccccc1I : 39.8 µM (inactive)

Briefly, GI50 measured for N#Cc1nc(C(F)(F)F)oc1N : > 100 µM (inactive)

* * *

system: NCI-H23; assay: NCI tumour cell line growth inhibition, 48 h
Calls of active or inactive are those of the source. Rule as the data show it: active = GI50 up to about 1.1 µM and inactive = higher.
Select the correct class. Options are active, inactive and nothing else.

Cc1nnc(N/N=C2/C(=O)Nc3c(Cl)cc(Cl)cc32)n1N    inactive
CC(=O)Oc1c(C)c2c(c3ncccc13)OC(C)C2 (stereo not given)    inactive

# lookup: test call for CC1CC[C@@]23CCC4(C)[C@@](C=CC5[C@@]6(C)CCC(=O)C(C)(C)C6CC[C@]54C)(OC2=O)[C@@H]3[C@H]1C (stereo not given in full)
inactive

// param item: COc1ccc(Nc2nc3ccccc3nc2-c2cccs2)cc1OC ; yields the recorded call
inactive

What did the test return for CC12CCC[C@@](C)(C(=O)OC3OC(CO)C(O)C(O)C3O)[C@H]1CCC13CC4CC(OC4(CO)[C@H]1O)[C@@H]23 (stereo not given in full) ?
inactive

Hi team, can someone confirm the assay call for C=CCc1c(O)c2ccccc2[nH]c1=O ?
inactive

Field: outcome | Entry: C[N+]1=C(c2cccnc2/C=N/O)OCC1(C)C
inactive

In this assay, the call recorded for c1ccc(C[P+]2(c3ccccc3)c3ccccc3-c3ccccc32)cc1 was what?
inactive

Hi team, can someone confirm the assay call for CCOC(=O)/C(=C\NC(=S)Nc1ccc(Cl)c(Cl)c1)C(=O)c1ccccc1 ?
inactive

Just curious, what result did CC1(C)CC(=O)C(=[N+]=[N-])C(=O)C1 get here?
inactive

Test call, this compound: Cc1c(O)oc2ccccc2c1=O
inactive

What was the test verdict on CN1C(=O)CNS1(=O)=O ?
inactive

Can you look up the reported call for CN(C)CCCNC(=O)c1cccc2ccccc12 for me?
inactive

How was CC(C)C/N=C(\N)N=C(N)N classified in this test?
inactive

I'd appreciate the recorded outcome for Clc1ccc2c(NC3CCC(N4CCCCC4)CC3)ccnc2c1 (stereo not given) from this test.
inactive

# fetch the recorded call for Cc1nc(O)nc2nc3ccc(Cl)cc3c(NCCNCCO)c12 here
inactive

Just curious, what result did CN(C)CCNC(=O)Cn1ccc(=O)c2cc([N+](=O)[O-])ccc21 get here?
inactive

Could you please tell me the result logged for CCOC(=O)[C@@]12C[C@](/C=C/OC)(O[Si](C)(C)C)[C@@]13c1cc(OC)c(OC)cc1CCN3C(=O)C2O (stereo not given in full) in this assay?
inactive

Could you check what this test reported for CN1C=C(C(N)=O)C2CC(O)[C@@](NC(=O)CS(N)(=O)=O)(C(=O)O)C2C1 (stereo not given in full) ?
inactive

How did this test come out for Cc1cc(C)[n+](CCOc2ccc(/C(=C(/Cl)c3ccccc3)c3ccccc3)cc2)c(C)c1.[O-][Cl+3]([O-])([O-])[O-] ?
active

Outcome logged for C[C@]12CCC(O)CC1=CC[C@@H]1[C@@H]2CC[C@]2(C)C(=O)[C@H](n3ccnc3)C[C@@H]12 (stereo not given in full) in this assay:
inactive

* * *

system: RXF 393; test: NCI tumour cell line growth inhibition, 48 h
Activity calls are given as the source filed them. Rule as the data show it: active = GI50 up to about 1.1 µM and inactive = higher.
measurementType: GI50

# compound NC(=O)SCC(=O)Nc1ccc2cccc3c2c1CC3 ; its GI50 = 26 µM (inactive)

So for Cn1c(=O)nc2n(-c3cccc(F)c3)c3ccccc3nc-2c1=O , the logged GI50 turned out to be 67.9 µM (inactive)

Item: COc1ccccc1Nc1nc(N)nc(N)c1N | GI50: > 100 µM (inactive)

Lab note: COc1ccc(O[C@H](CO)C[C@@H]2COC(C)(C)O2)cc1 gave GI50 of > 100 µM (inactive)

Form: compound = CC1=NN(c2nc(N)nc(CCl)n2)C(C)(C)C1 ; GI50 = > 56.8 µM (inactive)

* * *

system: MOLT-4; assay: NCI tumour cell line growth inhibition, 48 h
Calls of active or inactive are those of the source. No stated cut-off is given here; in the data, active = GI50 up to about 1.1 µM and inactive = higher.
Recorded GI50 by entry

CN(C)c1ccc(/C=C/C=C\c2cc(/C=C/C=C/c3ccc(N(C)C)cc3)[s+]c3ccccc23)cc1.[O-][Cl+3]([O-])([O-])[O-]    > 100 µM (inactive)
C[C@]12CCC(O)CC1=CC[C@@H]1[C@@H]2CC[C@]2(C)C(=O)[C@H](n3ccnc3)C[C@@H]12 (some centres not stated)    17.9 µM (inactive)
C=CCc1c(O)c2ccccc2[nH]c1=O    > 100 µM (inactive)
C[C@H]1SC(c2ccc(Cl)cc2Cl)N(NC(=O)c2ccncc2)C1=O (some centres not stated)    > 10 µM (inactive)
[N-]=[N+]=Nc1cc(=O)oc2ccccc12    > 100 µM (inactive)
Oc1ccc(Br)cc1/C=N/c1cccc(C(F)(F)F)c1    23.1 µM (inactive)

Form: compound = COc1ccc2c(C(=O)c3cn(CCN4CCOCC4)c4ccccc34)cccc2c1 ; GI50 = 15.1 µM (inactive)

# compound Cc1cc(C)[n+](CCOc2ccc(/C(=C(/Cl)c3ccccc3)c3ccccc3)cc2)c(C)c1.[O-][Cl+3]([O-])([O-])[O-] ; its GI50 = 1.28 µM (inactive)

Kindly note the recorded GI50 for O=C(CCO)OCCCCCC/C=C\CCCCCC/C=C\CCCCCCCCOC(=O)CCO , which is 14.6 µM (inactive)

Kindly note the recorded GI50 for COC(=O)c1c(C)nc(C)c(N=O)c1-c1ccccc1C(F)(F)F , which is 6.25 µM (inactive)

According to the records, this compound C[N+](C)(CCCCCC[N+](C)(C)CCCN1C(=O)c2cccc3cccc(c23)C1=O)CCCN1C(=O)c2cccc3cccc(c23)C1=O displays GI50 of > 100 µM (inactive)

Form: compound = COc1ccc(C2C(Cl)C(=O)N2NC(=O)c2ccccc2O)cc1OC (configuration not stated) ; GI50 = 42.5 µM (inactive)

Per the record, O=C1C2=C(CCC2)Nc2cccc3ncn1c23 has GI50 of > 100 µM (inactive)

GI50 reading for O=C(N/N=C\c1ccccc1)Nc1cccc2ccccc12 : > 100 µM (inactive)

So, CN(C)CCCNC(=O)c1cc(NS(=O)(=O)c2ccc3c(c2)C(=O)c2ccccc2C3=O)cn1C ? Its GI50 was 32.7 µM (inactive)

COC(=O)c1c/c(=N\NC(=O)CC(=O)Nc2ccccc2OC)c2ccccc2o1 has a reported GI50 of 75.7 µM (inactive)

C=CCN(CCN(CC=C)S(=O)(=O)c1ccc(C)cc1)S(=O)(=O)c1ccc(C)cc1 yielded GI50 of > 100 µM (inactive)

* * *

test system: SW-620; assay: NCI tumour cell line growth inhibition, 48 h
The source made the active and inactive calls. Cut-off read from the data, not from the text of the source: active = GI50 up to about 1.1 µM and inactive = higher.
Bench note: report the call from T (active), F (inactive)

O=C1SC(SCc2ccccc2)=NC12CC2c1ccccc1 (stereo unspecified)    F
CN(C)S(=O)(=O)c1ccc(Nc2ccc(O)c3c2C(=O)c2c([N+](=O)[O-])ccc(O)c2C3=O)cc1    F
O=S(=O)(O)SC/C=C\CSS(=O)(=O)O    F
O=C1/C(=C\c2cccc(Oc3ccccc3)c2)SC(c2ccccc2)N1c1ccc(Cl)cc1 (stereo unspecified)    F
Cc1ccc(-c2nc3ccccc3c(=O)n2NC2OC(CO)C(O)C(O)C2O)cc1 (stereo unspecified)    F

Just curious, what result did Nc1ncnc2c1ncn2CCCNO get here?
F

Assay outcome for CC1=NN(c2nc(N)nc(CCl)n2)C(C)(C)C1 : what was it?
F

Hey, what did the test say about COC(=O)c1ccc(OCc2ccc3nc(-c4ccccc4)c(Cl)nc3c2)cc1 ?
F

Please state the recorded outcome for this compound: C[N+]1=C(c2cccnc2/C=N/O)OCC1(C)C
F

State the result this test recorded for COC1=CC(=O)c2c(c(COP(=O)(N(C)CCBr)N(C)CCBr)cn2C)C1=O .
T

What call does the record list for CCC(C)C(=O)OC1C(=O)OC2CC3C(C)=CC(=O)C(O)C3(C)C3C4(O)OCC23C1C(C)C4O (stereo unspecified) ?
T
